FYI, the data here is from patent US20090143279A1.

System: cytochrome c
Type: cell-based, mouse
CONDITION_DESCRIPTION: composite Z-score vs mock-treated (DMSO) wells; concentration of each compound in μM
MEASURED_ATTRIBUTE: cyt c
Output spec: single numeric token, no unit.

Example entries begin here.
Query block: Return reported cyt c; argument: C[C@H]1CC[C@]2(NC1)O[C@H]1C[C@H]3[C@@H]4CC[C@H]5C[C@@H](O)CC[C@]5(C)[C@H]4CC[C@]3(C)[C@H]1[C@@H]2C
Result block: 1.135

Query block: # cyt c lookup, item CCCc1nc2c(C)cc(-c3nc4ccccc4n3C)cc2n1Cc1ccc(-c2ccccc2C(=O)O)cc1
Result block: −0.044

Query block: Sample CC(NCCc1ccc(O)cc1)C(O)c1ccc(O)cc1 (stereo not shown) — what was its cyt c?
Result block: −0.072

Next:
Query block: # input molecule: C=Cc1c(C)c2cc3nc(c4c5[n-]c(cc6nc(cc1[n-]2)C(C)=C6CC)c(C)c5C(=O)[C@@H]4C(=O)OC)[C@@H](CCC(=O)O)[C@@H]3C.[Mg+2] [chlorophyllide] ; wanted: its cyt c
Result block: −1.157
